Provenance of the data: patent US9789096B2

- Test system: H2009
- Test: Cell viability dose-response, H2009
- Format: cell-based, human
- Applied Conditions: Homo sapiens, NCI-H2009; 12-point dose-response starting at 50 micromolar, 3-fold increments, in duplicate; read-out: toxicity data, H2009
- Protocol: FIG. 6A. […] Cell viability is plotted vs. compound concentration. Compound was added to cells plated at 15% confluence in 96-well plates in RPMI-1640 media supplemented with 5% Fetal Bovine Serum and 2 mM L-Glutamine. After 4 days of incubation, ATP levels were measured using Cell Titer Glo (Promega). […] Selectivity may be measured by the half maximal inhibitory concentration (IC50), which, as used herein, is a measure of the effectiveness of a compound in killing cells. […]
# label = condition met if IC50 < 5 µM else condition not met

Consider O=C(NCCc1ccc(O)cc1)NC(=O)c1ccc(Oc2ccccc2)cc1 [SW208523-1-A] . Does its IC50 lie strictly below 5 µM? condition met

Consider next the compound COc1ccc(CCNC(=O)NC(=O)c2cccc(-c3ccccc3)c2)cc1 [SW208394-1-A] in the same way. condition not met

----------
- System: H2122
- Test: Cell viability dose-response, H2122
- Type: cell-based, human
- Applied Conditions: Homo sapiens, NCI-H2122, Table 8; 12-point dose-response starting at 50 micromolar
Recorded Endpoint: AC50 (µM)
Answers are plain numbers, in µM.

// below: answered compounds
[
  {
    "Compound": "O=c1c(-c2cccc(F)c2)coc2cc(OCc3cnn(-c4ccccc4)c3)ccc12 [SW208735]",
    "Value Unit": "µM",
    "AC50": 0.55
  },
  {
    "Compound": "O=c1c(C(O)c2ccccc2)coc2cc(OCc3cnn(-c4ccccc4)c3)ccc12 (stereo not drawn) [SW208833-1]",
    "Value Unit": "µM",
    "AC50": 0.216
  },
  {
    "Compound": "O=c1c(-c2cccc(O)c2)coc2cc(OCc3cnn(-c4ccccc4)c3)ccc12 [SW208740]",
    "Value Unit": "µM",
    "AC50": 21
  }
]

Any idea what its AC50 is? The compound is O=c1c(Oc2ccccc2F)coc2cc(OCc3cnn(-c4ccccc4)c3)ccc12 [SW043139] 0.166

----------
- Test system: H2122
- Test: Cell viability dose-response, H2122
- Assay type: cell-based, human
- Applied Conditions: Homo sapiens, NCI-H2122, Table 8; 12-point dose-response starting at 50 micromolar
Please go through the items and note down their log10(AC50).
Note: values are log10 of AC50 expressed in nM.

Worked cases, log10(AC50) given:
[
  {
    "Compound": "Cc1ccc(/C=C2\\COc3cc(OCc4cnn(-c5ccccc5)c4)ccc3C2=O)cc1 [SW209199-1]",
    "Tested System": "H2122",
    "log10(AC50)": 4.64
  },
  {
    "Compound": "O=c1c(Oc2ccccc2Cl)coc2cc(OCc3cnn(-c4ccccc4)c3)ccc12 [SW 208589-1]",
    "Tested System": "H2122",
    "log10(AC50)": 2.08
  },
  {
    "Compound": "O=c1c(Cc2ccc(Br)cc2)coc2cc(OCc3cnn(-c4ccccc4)c3)ccc12 [SW209191-1]",
    "Tested System": "H2122",
    "log10(AC50)": 1.94
  },
  {
    "Compound": "O=c1c(Cc2ccc(Cl)nc2)coc2cc(OCc3cnn(-c4ccccc4)c3)ccc12 [SW209382-1]",
    "Tested System": "H2122",
    "log10(AC50)": 2.51
  },
  {
    "Compound": "O=c1c(Cc2ccncc2)coc2cc(OCc3cnn(-c4ccccc4)c3)ccc12 [SW209193-1]",
    "Tested System": "H2122",
    "log10(AC50)": 2.74
  }
]

For each of the compounds below, state log10(AC50).
1. O=c1c(Cc2ccccc2)coc2cc(OCc3cnn(-c4ccccc4)c3)ccc12 [SW208769-1]
2. O=c1c(Cc2ccccc2F)coc2cc(OCc3cnn(-c4ccccc4)c3)ccc12 [SW209189-1]

1.43
1.90

# lookup: log10(AC50) of O=c1c(-c2ccc(F)cc2)coc2cc(OCc3cnn(-c4ccccc4)c3)ccc12 [SW208737] 2.43
